protocol details: Compartmental PK modelling and repeat-dose simulation
Set-up: species or system hamsters
measurement conditions: hamster, plasma, po, 50 mg/kg, hamsters, 50 mg/kg qd, 5 days, simulated; read-out: Cum AUC

>  <molecule>
Cc1[nH]c2nc(N)nc(C)c2c1-c1ccc(C#N)c2c1OCO2 [DNDI-6174]

>  <units text>
µg·h/mL

>  <AUC at 5 days>
742

$$$$

---

assay target: CYP2C19 (Homo sapiens)
Construct: incubation of isoform-specific substrates with human liver microsomes; from tissue; host or cells: human liver microsomes
Sequence (P33261 whole entry, canonical isoform): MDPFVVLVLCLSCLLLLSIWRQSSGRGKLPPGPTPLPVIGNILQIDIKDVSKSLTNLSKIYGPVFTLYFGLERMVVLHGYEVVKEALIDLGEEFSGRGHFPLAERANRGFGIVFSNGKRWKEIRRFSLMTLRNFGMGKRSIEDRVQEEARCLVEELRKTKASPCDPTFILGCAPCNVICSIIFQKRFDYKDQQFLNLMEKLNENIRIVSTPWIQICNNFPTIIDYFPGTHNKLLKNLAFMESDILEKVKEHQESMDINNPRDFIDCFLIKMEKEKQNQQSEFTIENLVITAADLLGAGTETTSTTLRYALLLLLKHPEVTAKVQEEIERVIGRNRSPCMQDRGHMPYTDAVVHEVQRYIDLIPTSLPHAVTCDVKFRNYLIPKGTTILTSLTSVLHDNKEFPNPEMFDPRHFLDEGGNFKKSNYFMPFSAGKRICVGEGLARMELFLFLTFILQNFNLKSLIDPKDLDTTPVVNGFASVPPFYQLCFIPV
protocol details: Cytochrome P450 inhibition, human liver microsomes
Format: in vitro ADME
measurement conditions: CYP2C19; read-out: Direct inhibition IC50
metric: IC50 (µM)

>  <compound>
Cc1[nH]c2nc(N)nc(C)c2c1-c1ccc(C#N)c2c1OCO2 [DNDI-6174]

>  <assay target>
CYP2C19 (Homo sapiens)

>  <value observed>
19

$$$$

---

protocol details: In vivo pharmacokinetics
Design: species or system male Sprague Dawley rats
measurement conditions: male, Sprague Dawley, rat, plasma, iv, 3 mg/kg, Rat, intravenous 3.0 mg/kg, Monash University; read-out: Plasma AUC0-inf

>  <structure string>
Cc1[nH]c2nc(N)nc(C)c2c1-c1ccc(C#N)c2c1OCO2

>  <AUC(0-inf), ng·h/mL>
23600

$$$$

---

protocol details: Compartmental PK modelling and repeat-dose simulation
Set-up: species or system hamsters
measurement conditions: hamster, plasma, po; Hamsters, 50 mg/kg, fitted
metric: AUC(0-inf) (µg·h/mL)

>  <structure string>
Cc1[nH]c2nc(N)nc(C)c2c1-c1ccc(C#N)c2c1OCO2

>  <metric>
AUC(0-inf)

>  <value observed>
140

$$$$

---

protocol details: In vivo pharmacokinetics
Set-up: species or system male Sprague Dawley rats
measurement conditions: male, Sprague Dawley, rat, plasma, iv, 3 mg/kg, Rat, intravenous 3.0 mg/kg, WuXi AppTec; read-out: Plasma CL

>  <structure string>
Cc1[nH]c2nc(N)nc(C)c2c1-c1ccc(C#N)c2c1OCO2

>  <units text>
mL/min/kg

>  <clearance>
2.95

$$$$

---

protocol details: In vivo pharmacokinetics
Design: species or system male Sprague Dawley rats
measurement conditions: male, Sprague Dawley, plasma; Rat, oral 10 mg/kg

>  <molecule>
Cc1[nH]c2nc(N)nc(C)c2c1-c1ccc(C#N)c2c1OCO2 [DNDI-6174]

>  <units text>
h

>  <Tmax>
4

$$$$

---

protocol details: Caco-2 permeability
Format: in vitro ADME
measurement conditions: human

>  <compound>
Cc1[nH]c2nc(N)nc(C)c2c1-c1ccc(C#N)c2c1OCO2 [DNDI-6174]

>  <Papp B→A>
72 ×10⁻⁶ cm/s

$$$$

---

protocol details: In vivo pharmacokinetics
Design: species or system female BALB/c mice
measurement conditions: female, BALB/c, mouse, plasma; mice, oral 3.6 mg/kg bid, 5 days; read-out: Cmax (first dose)
metric: Cmax (ng/mL)

>  <structure string>
Cc1[nH]c2nc(N)nc(C)c2c1-c1ccc(C#N)c2c1OCO2

>  <value observed>
600

$$$$

---

protocol details: In vivo pharmacokinetics
Parameters: species or system male Sprague Dawley rats
measurement conditions: male, Sprague Dawley, rat, plasma, iv, 3 mg/kg, Rat, intravenous 3.0 mg/kg, WuXi AppTec; read-out: Apparent t1/2 (converted)
Description: Single dose intravenous (IV) pharmacokinetic (PK) studies in male Sprague Dawley rats and IV and oral PK studies in female BALB/c mice were conducted at Monash University. […] Blood was sampled via a cannula implanted in the carotid artery (also on the day prior to dosing) at pre-determined time points up to 24 h post-dose. Samples were transferred to vials containing heparin as an anticoagulant, gently mixed and centrifuged, and plasma separated for subsequent quantitative analysis using LC-MS. […]

>  <molecule>
Cc1[nH]c2nc(N)nc(C)c2c1-c1ccc(C#N)c2c1OCO2 [DNDI-6174]

>  <half-life [h]>
5.3

$$$$

---

protocol details: Compartmental PK modelling and repeat-dose simulation
Parameters: species or system hamsters
measurement conditions: hamster, plasma, po, 25 mg/kg, hamsters, 25 mg/kg qd, 5 days, simulated
metric: Cmax at 5 days (ng/mL)

>  <structure string>
Cc1[nH]c2nc(N)nc(C)c2c1-c1ccc(C#N)c2c1OCO2

>  <metric>
Cmax at 5 days

>  <units text>
ng/mL

>  <value observed>
5330

$$$$

---

assay target: MATE2-K (Homo sapiens)
Sequence (Q86VL8 1-566 isoform Q86VL8-3): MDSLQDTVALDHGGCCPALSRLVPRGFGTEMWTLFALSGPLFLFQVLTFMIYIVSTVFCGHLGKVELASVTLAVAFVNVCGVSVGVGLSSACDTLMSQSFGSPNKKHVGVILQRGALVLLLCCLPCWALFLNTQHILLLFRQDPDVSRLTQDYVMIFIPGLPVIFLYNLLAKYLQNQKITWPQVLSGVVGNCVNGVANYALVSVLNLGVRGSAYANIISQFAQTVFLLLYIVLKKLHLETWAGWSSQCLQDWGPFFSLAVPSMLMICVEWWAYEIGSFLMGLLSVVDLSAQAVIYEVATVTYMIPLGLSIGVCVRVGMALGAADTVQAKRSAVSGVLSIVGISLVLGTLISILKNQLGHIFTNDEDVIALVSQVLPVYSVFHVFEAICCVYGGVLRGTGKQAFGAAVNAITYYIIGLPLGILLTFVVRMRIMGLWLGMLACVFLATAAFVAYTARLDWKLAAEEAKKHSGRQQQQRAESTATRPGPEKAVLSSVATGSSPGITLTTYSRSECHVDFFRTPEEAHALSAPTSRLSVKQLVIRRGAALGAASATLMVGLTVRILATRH
pIC50: −log10 of the molar value.

>  <structure string>
Cc1[nH]c2nc(N)nc(C)c2c1-c1ccc(C#N)c2c1OCO2

>  <pIC50>
6.06

$$$$

---

assay target: CYP2C8 (Homo sapiens, UniProt P10632)
Construct: incubation of isoform-specific substrates with human liver microsomes; from tissue; host or cells: human liver microsomes
Sequence (P10632 whole entry, canonical isoform): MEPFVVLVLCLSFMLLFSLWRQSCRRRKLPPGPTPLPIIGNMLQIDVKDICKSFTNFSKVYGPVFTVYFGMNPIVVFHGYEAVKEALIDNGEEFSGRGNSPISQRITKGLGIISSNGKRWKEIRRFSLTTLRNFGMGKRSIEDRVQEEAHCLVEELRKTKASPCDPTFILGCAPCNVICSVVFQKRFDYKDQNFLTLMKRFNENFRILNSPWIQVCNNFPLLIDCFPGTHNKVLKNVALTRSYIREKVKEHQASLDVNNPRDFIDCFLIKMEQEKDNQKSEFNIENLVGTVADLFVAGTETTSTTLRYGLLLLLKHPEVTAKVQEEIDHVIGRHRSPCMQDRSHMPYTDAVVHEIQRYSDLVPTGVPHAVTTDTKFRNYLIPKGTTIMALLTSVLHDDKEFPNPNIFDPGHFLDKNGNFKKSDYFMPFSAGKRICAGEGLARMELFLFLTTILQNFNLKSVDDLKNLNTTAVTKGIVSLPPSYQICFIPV
protocol details: Cytochrome P450 inhibition, human liver microsomes
Type: in vitro ADME
measurement conditions: CYP2C8; read-out: Direct inhibition IC50
pIC50: −log10 of the molar value.

>  <structure string>
Cc1[nH]c2nc(N)nc(C)c2c1-c1ccc(C#N)c2c1OCO2

>  <pIC50>
< 4.70

$$$$

---

protocol details: In vivo pharmacokinetics
Parameters: species or system female BALB/c mice
measurement conditions: female, BALB/c, mouse, plasma, iv, 2 mg/kg, intravenous 2.0 mg/kg, read-out: Plasma CL
Experimental: Single dose intravenous (IV) pharmacokinetic (PK) studies in male Sprague Dawley rats and IV and oral PK studies in female BALB/c mice were conducted at Monash University. […] Blood was sampled via a cannula implanted in the carotid artery (also on the day prior to dosing) at pre-determined time points up to 24 h post-dose. Samples were transferred to vials containing heparin as an anticoagulant, gently mixed and centrifuged, and plasma separated for subsequent quantitative analysis using LC-MS. […]

>  <structure string>
Cc1[nH]c2nc(N)nc(C)c2c1-c1ccc(C#N)c2c1OCO2

>  <units text>
mL/min/kg

>  <clearance>
7.46

$$$$

---

protocol details: In vitro metabolism, cryopreserved hepatocytes
Type: in vitro ADME, mouse
measurement conditions: mouse, cryopreserved hepatocytes

>  <structure string>
Cc1[nH]c2nc(N)nc(C)c2c1-c1ccc(C#N)c2c1OCO2

>  <hepatocyte CLint at 0.5 µM (µL/min/1e6 cells)>
9.7

$$$$

---

protocol details: Solubility in biorelevant buffers
Assay type: physicochemical
measurement conditions: FeSSIF-V2, pH 5.8, fessif, pH 5.8; read-out: Solubility FeSSIF
Method: The ionization constant (pKa), octanol-pH 7.4 buffer partition coefficient (Log D7.4), solubility in biorelevant buffers (FaSSIF-V2, FeSSIF-V2, FaSSGF and pH 7.4 phosphate buffered saline (PBS)) and Caco-2 permeability were determined according to previously published methods ([10]).
metric: solubility (µg/mL)

>  <structure string>
Cc1[nH]c2nc(N)nc(C)c2c1-c1ccc(C#N)c2c1OCO2

>  <metric>
solubility

>  <value observed>
54

$$$$

---

protocol details: In vivo pharmacokinetics
Parameters: species or system female golden Syrian hamsters
measurement conditions: female, golden Syrian, hamster, plasma; hamsters, oral 50 mg/kg, single dose on day 1 only; read-out: AUC0-24 (first dose)
metric: AUC(0-t) (µg·h/mL)

>  <structure string>
Cc1[nH]c2nc(N)nc(C)c2c1-c1ccc(C#N)c2c1OCO2

>  <metric>
AUC(0-t)

>  <units text>
µg·h/mL

>  <value observed>
145

$$$$

---

protocol details: In vivo pharmacokinetics
Parameters: species or system male beagle dogs
measurement conditions: male, beagle, dog, plasma; dogs, single oral 90 mg/kg

>  <structure string>
Cc1[nH]c2nc(N)nc(C)c2c1-c1ccc(C#N)c2c1OCO2

>  <Cmax>
19100 ng/mL

$$$$

---

protocol details: Compartmental PK modelling and repeat-dose simulation
Design: species or system hamsters
measurement conditions: hamster, plasma, po; Hamsters, 12.5 mg/kg, fitted

>  <molecule>
Cc1[nH]c2nc(N)nc(C)c2c1-c1ccc(C#N)c2c1OCO2 [DNDI-6174]

>  <CL/F, mL/min/kg>
8.75

$$$$

---

protocol details: Compartmental PK modelling and repeat-dose simulation
Parameters: species or system hamsters
measurement conditions: hamster, plasma, po, 50 mg/kg, hamsters, 50 mg/kg qd, 5 days, simulated; read-out: AUC24 ss

>  <compound>
Cc1[nH]c2nc(N)nc(C)c2c1-c1ccc(C#N)c2c1OCO2 [DNDI-6174]

>  <AUC / µg·h/mL>
148

$$$$

---

protocol details: In vivo pharmacokinetics
Parameters: species or system male beagle dogs
measurement conditions: male, beagle, dog, plasma; dogs, single oral 30 mg/kg

>  <compound>
Cc1[nH]c2nc(N)nc(C)c2c1-c1ccc(C#N)c2c1OCO2 [DNDI-6174]

>  <Cmax [ng/mL]>
9590

$$$$

---

assay target: CYP2D6 (Homo sapiens, UniProt P10635)
Construct: incubation of isoform-specific substrates with human liver microsomes; from tissue; host or cells: human liver microsomes
Sequence (P10635 whole entry, canonical isoform): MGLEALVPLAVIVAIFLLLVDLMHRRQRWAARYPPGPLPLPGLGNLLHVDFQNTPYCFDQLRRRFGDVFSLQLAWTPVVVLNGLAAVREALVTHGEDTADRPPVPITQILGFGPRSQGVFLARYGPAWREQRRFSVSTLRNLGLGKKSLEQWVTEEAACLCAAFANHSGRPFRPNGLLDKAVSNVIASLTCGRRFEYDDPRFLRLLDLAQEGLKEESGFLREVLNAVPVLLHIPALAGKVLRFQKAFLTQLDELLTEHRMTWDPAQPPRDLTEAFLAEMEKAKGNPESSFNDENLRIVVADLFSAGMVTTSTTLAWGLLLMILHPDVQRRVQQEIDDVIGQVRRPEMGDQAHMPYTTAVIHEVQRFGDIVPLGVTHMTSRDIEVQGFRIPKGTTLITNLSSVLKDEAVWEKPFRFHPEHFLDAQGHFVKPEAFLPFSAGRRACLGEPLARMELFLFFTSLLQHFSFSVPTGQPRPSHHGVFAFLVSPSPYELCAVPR
protocol details: Cytochrome P450 inhibition, human liver microsomes
Type: in vitro ADME
measurement conditions: with NADPH preincubation; read-out: Time-dependent inhibition IC50
pIC50: −log10 of the molar value.
metric: pIC50

>  <molecule>
Cc1[nH]c2nc(N)nc(C)c2c1-c1ccc(C#N)c2c1OCO2 [DNDI-6174]

>  <assay target>
CYP2D6 (Homo sapiens, UniProt P10635)

>  <value observed>
6.31

$$$$
